procedure_summary: Pharmacokinetic study in rats: plasma 2C-B after IV/PO 2C-B or PO 2C-B prodrugs
condition: male, Sprague-Dawley, rat, plasma, iv, 1 mg/kg, AUC0-inf, 2C-B dosed IV 1 mg/kg, male SD rats, analyte 2C-B in plasma, individual animals
quantity_name: AUC0-inf (ng·h/mL)
One number for each entry, in ng·h/mL.

# input Give the measured AUC0-inf of "COc1cc(CCN)c(OC)cc1Br" .
# output 68.6

---

procedure_summary: Pharmacokinetic study in rats: plasma 2C-B after IV/PO 2C-B or PO 2C-B prodrugs
condition: male, Sprague-Dawley, rat, plasma, iv, 1 mg/kg, Cmax, 2C-B dosed IV 1 mg/kg, male SD rats, analyte 2C-B in plasma, individual animals
quantity_name: Cmax (ng/mL)
Answers are plain numbers, in ng/mL.

# input Endpoint output: Cmax of "COc1cc(CCN)c(OC)cc1Br" . Value?
# output 72

---

procedure_summary: Pharmacokinetic study in rats: plasma 2C-B after IV/PO 2C-B or PO 2C-B prodrugs
condition: male, Sprague-Dawley, rat, plasma, po, 5 mg/kg, Cmax, 2C-B dosed oral 5 mg/kg, male SD rats, analyte 2C-B in plasma, mean
quantity_name: Cmax (µg/mL)
Give bare numbers, in µg/mL.

# input Fill in: Cmax of COc1cc(CCN)c(OC)cc1Br [Example 2C-B, 4-bromo-2,5-dimethoxyphenethylamine] is ___
# output 0.0377

// provenance: patent US20250049748A1
